Test: Clearance in rat
Type: ADME, organism-based
Conditions: in vivo
Value kind: clearance (mL/min/kg)

| Compound structure string | Value kind | Measured result |
| --- | --- | --- |
| O=C(O)COc1ccc(Cl)cc1C1CCCCCC1 | clearance | 7.3 |

---

Recorded Ki for the following molecules
Biological target: Prostaglandin D2 receptor (Homo sapiens)
Sequence (Q13258 whole entry): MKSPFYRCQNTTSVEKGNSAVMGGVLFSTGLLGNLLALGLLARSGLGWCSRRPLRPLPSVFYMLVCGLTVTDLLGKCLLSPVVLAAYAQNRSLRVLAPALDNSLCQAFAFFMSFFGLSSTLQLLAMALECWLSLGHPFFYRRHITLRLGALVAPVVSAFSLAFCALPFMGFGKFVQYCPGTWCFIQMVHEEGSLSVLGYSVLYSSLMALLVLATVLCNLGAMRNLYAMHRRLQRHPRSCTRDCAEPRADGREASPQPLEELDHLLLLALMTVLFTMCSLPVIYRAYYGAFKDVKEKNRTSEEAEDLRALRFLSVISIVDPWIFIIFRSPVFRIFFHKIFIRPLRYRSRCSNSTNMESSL
Assay: Binding affinity at prostanoid DP receptor
Value kind: Ki

| Compound structure string | Measured result |
| --- | --- |
| O=C(O)COc1ccccc1C1CCCCC1 | > 10 µM |
| O=C(O)CCCOc1ccc(Cl)cc1C1CCCCC1 | > 10 µM |
| C=CCc1cc(Cl)ccc1OCC(=O)O | 4.74 µM |
| O=C(O)COc1ccc(C(F)(F)F)cc1C1CCCCC1 | > 10 µM |
| O=C(O)COc1ccc(Cl)cc1C1CCCC1 | 4.8 µM |
| OCCOc1ccc(Cl)cc1C1CCCCC1 | > 10 µM |
| C[C@@H](Oc1ccc(Cl)cc1C1CCCCC1)C(=O)O | > 10 µM |
| Cc1ccc(OCC(=O)O)c(C2CCCCC2)c1 | > 10 µM |
| O=C(O)COc1ccc(Br)cc1C1CCCCC1 | 5.9 µM |
| COC(=O)COc1ccc(Cl)cc1C1CCCCC1 | 8.9 µM |
| O=C(O)CCOc1ccc(Cl)cc1C1CCCCC1 | > 10 µM |
| O=C(O)COc1ccc(Cl)cc1C1CCCCCC1 | 1.88 µM |
| Clc1ccc(OCc2nnn[nH]2)c(C2CCCCC2)c1 | > 10 µM |

---

Experiment: Cmax in rat
Type: ADME, organism-based
Details: in vivo

| Compound structure string | Cmax |
| --- | --- |
| O=C(O)COc1ccc(Cl)cc1C1CCCCCC1 | 4.7 µM |

---

Assay: Intrinsic clearance in rat microsomes
Assay type: ADME, Microsome

| Compound structure string | microsomal CLint |
| --- | --- |
| O=C(O)COc1ccc(Cl)cc1C1CCCCCC1 | 205 µL/min/mg |

---

Assay: Volume of distribution at steady state in rat
Assay type: ADME, organism-based
Settings: in vivo, read-out: Vdss

| Compound structure string | Vd [L/kg] |
| --- | --- |
| O=C(O)COc1ccc(Cl)cc1C1CCCCCC1 | 0.52 |

---

Test: Intrinsic clearance in human microsomes
Format: ADME, Microsome
Value kind: microsomal CLint (µL/min/mg)

| Compound structure string | Value kind | Result units | Measured result |
| --- | --- | --- | --- |
| O=C(O)COc1ccc(Cl)cc1C1CCCCCC1 | microsomal CLint | µL/min/mg | 109 |

---

Molecular target: Prostaglandin D2 receptor 2 (Homo sapiens)
Assay: Displacement of […] from human CRTh2 receptor expressed in CHO cells
pKi: −log10 of the molar value.

| Compound structure string | Censoring sign | pKi |
| --- | --- | --- |
| O=C(O)COc1ccc(-c2ccc(F)cc2)cc1C1CCCCC1 | = | 7.00 |
| O=C(O)COc1ccc(F)cc1C1CCCCC1 | = | 6.35 |
| CC1(c2cc(Cl)ccc2OCC(=O)O)CCCCC1 | = | 7.05 |
| O=C(O)COc1ccc(Cl)cc1C1CCCCCC1 | = | 7.23 |
| N#Cc1ccc(OCC(=O)O)c(C2CCCCC2)c1 | = | 6.64 |
| O=C(O)CCOc1ccc(Cl)cc1C1CCCCC1 | = | 6.10 |
| Cc1cc(Cl)ccc1OCC(=O)O | < | 5.00 |
| O=C(O)COc1ccc(Cl)cc1C1CCCC1 | = | 6.82 |
| C=CCc1cc(Cl)ccc1OCC(=O)O | = | 5.29 |
| CS(=O)(=O)NC(=O)COc1ccc(Cl)cc1C1CCCCC1 | < | 5.00 |
| Clc1ccc(OCc2nnn[nH]2)c(C2CCCCC2)c1 | < | 5.00 |
| Cc1ccc(OCC(=O)O)c(C2CCCCC2)c1 | = | 6.45 |
| COC(=O)COc1ccc(Cl)cc1C1CCCCC1 | = | 5.48 |

---

Molecular target: Cytochrome P450 2C19 (Homo sapiens, UniProt P33261)
Sequence (P33261 whole entry): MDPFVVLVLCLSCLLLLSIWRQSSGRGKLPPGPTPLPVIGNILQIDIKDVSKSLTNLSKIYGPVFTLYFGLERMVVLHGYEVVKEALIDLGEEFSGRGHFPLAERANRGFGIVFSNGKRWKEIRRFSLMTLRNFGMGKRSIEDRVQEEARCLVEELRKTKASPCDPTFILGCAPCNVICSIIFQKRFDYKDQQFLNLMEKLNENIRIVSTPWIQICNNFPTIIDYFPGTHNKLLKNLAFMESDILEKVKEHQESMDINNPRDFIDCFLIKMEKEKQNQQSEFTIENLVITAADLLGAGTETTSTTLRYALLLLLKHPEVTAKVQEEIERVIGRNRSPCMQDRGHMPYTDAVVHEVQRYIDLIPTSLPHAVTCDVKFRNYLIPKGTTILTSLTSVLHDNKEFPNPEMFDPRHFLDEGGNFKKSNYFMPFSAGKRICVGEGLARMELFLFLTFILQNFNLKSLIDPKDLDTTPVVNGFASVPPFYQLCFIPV

| Compound structure string | IC50 |
| --- | --- |
| O=C(O)COc1ccc(Cl)cc1C1CCCCCC1 | > 10 µM |

---

Experiment: Oral bioavailability in rat at 2 mg/kg
Assay type: ADME, organism-based
Settings: in vivo
Value kind: bioavailability (%)

| Compound structure string | Value kind | Measured result |
| --- | --- | --- |
| O=C(O)COc1ccc(Cl)cc1C1CCCCCC1 | bioavailability | 58 |

---

Assay: Permeability from apical to basolateral side of Caco-2 cell membrane
Type: ADME, cell-based
Settings: human, read-out: permeability

| Compound structure string | Papp A→B / ×10⁻⁶ cm/s |
| --- | --- |
| O=C(O)COc1ccc(Cl)cc1C1CCCCCC1 | 8.4 |

---

Recorded Ki for the following compounds
Target: Prostaglandin D2 receptor (Homo sapiens, UniProt Q13258)
Experiment: Binding affinity at prostanoid DP receptor

| Compound | Measurement target | Ki |
| --- | --- | --- |
| O=C(O)COc1ccc(-c2ccc(F)cc2)cc1C1CCCCC1 | Prostaglandin D2 receptor (Homo sapiens, UniProt Q13258) | 6.4 µM |
| CS(=O)(=O)NC(=O)COc1ccc(Cl)cc1C1CCCCC1 | Prostaglandin D2 receptor (Homo sapiens, UniProt Q13258) | > 10 µM |
| Cc1cc(Cl)ccc1OCC(=O)O [METAXON] | Prostaglandin D2 receptor (Homo sapiens, UniProt Q13258) | > 10 µM |
| N#Cc1ccc(OCC(=O)O)c(C2CCCCC2)c1 | Prostaglandin D2 receptor (Homo sapiens, UniProt Q13258) | > 10 µM |
| C[C@H](Oc1ccc(Cl)cc1C1CCCCC1)C(=O)O | Prostaglandin D2 receptor (Homo sapiens, UniProt Q13258) | 4.49 µM |
| O=C(O)COc1ccc(Cl)cc1C1CCCCC1 | Prostaglandin D2 receptor (Homo sapiens, UniProt Q13258) | 7.6 µM |
| CC1(c2cc(Cl)ccc2OCC(=O)O)CCCCC1 | Prostaglandin D2 receptor (Homo sapiens, UniProt Q13258) | 1.21 µM |
| O=C(O)COc1ccc(F)cc1C1CCCCC1 | Prostaglandin D2 receptor (Homo sapiens, UniProt Q13258) | > 10 µM |
| COc1ccc(OCC(=O)O)c(C2CCCCC2)c1 | Prostaglandin D2 receptor (Homo sapiens, UniProt Q13258) | > 10 µM |

---

Recorded pKi for the following compounds
Molecular target: Prostaglandin D2 receptor 2 (Homo sapiens, UniProt Q9Y5Y4)
Sequence (Q9Y5Y4 whole entry): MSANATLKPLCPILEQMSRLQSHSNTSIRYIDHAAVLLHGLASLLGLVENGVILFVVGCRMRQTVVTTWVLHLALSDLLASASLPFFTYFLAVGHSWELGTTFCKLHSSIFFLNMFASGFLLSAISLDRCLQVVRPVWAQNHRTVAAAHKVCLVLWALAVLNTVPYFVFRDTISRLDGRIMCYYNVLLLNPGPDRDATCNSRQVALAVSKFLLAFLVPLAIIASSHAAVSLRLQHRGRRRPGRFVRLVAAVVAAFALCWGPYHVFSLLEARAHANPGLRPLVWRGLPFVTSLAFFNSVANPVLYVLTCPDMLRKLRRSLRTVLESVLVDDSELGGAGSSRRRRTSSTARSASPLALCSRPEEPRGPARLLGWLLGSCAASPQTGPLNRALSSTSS
Test: Displacement of […] from human CRTh2 receptor expressed in CHO cells
pKi: −log10 of the molar value.

| Compound structure string | Censoring sign | pKi |
| --- | --- | --- |
| O=C(O)COc1ccccc1C1CCCCC1 | = | 6.51 |
| OCCOc1ccc(Cl)cc1C1CCCCC1 | < | 5.00 |
| O=C(O)CCCOc1ccc(Cl)cc1C1CCCCC1 | = | 5.70 |

meta.source: ChEMBL document CHEMBL1140006
